# assayDetails: small-molecule microarray binders of probe aLefty2, primary screen, biochemical, biotinylated probe, 635/667 nm fluorescence (AID 1094);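 note: score merges spot fluorescence near 667 nm with spot signal-to-noise ratio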
# experimentalSetup: higher = more signal
Returns criterion met if the recorded composite z-score is greater than or equal to 0.1, and criterion not met otherwise.

Exam item: decide whether the reported composite z-score for `C=C(CCCC)/C(=C/C[C@H](OC(=O)c1ccncc1)c1ccccc1OCCO)c1cnc2ccccc2c1` is at least 0.1.
criterion not met

Reported composite z-score reaches at least 0.1 for `COCCOC(=O)N1C(=O)[C@@]2(c3cc(C#CCC(C(=O)OC)C(=O)OC)ccc31)[C@H](c1ccccc1OCCO)N1[C@H](c3ccccc3)[C@H](c3ccccc3)OC(=O)[C@H]1[C@@H]2C(=O)N1CCN(c2ncccn2)CC1` ?
criterion not met

Determine whether this compound has composite z-score no lower than 0.1: CN1C(=O)C2C=CC(C(O)C#Cc3ccccc3)N(N3CCCCC3)C2C1=O (stereo not drawn)
criterion met

Does `C=C(CCCC)/C(=C/C[C@H](OC(C)=O)c1ccccc1OCCO)c1cc(C(=O)OC)ccc1OC` have a reported composite z-score of at least 0.1?
criterion not met

Is reported composite z-score greater than or equal to 0.1 here: `CCCC#C[Si](O[C@H](CC)c1cn(Cc2cccc(Cl)c2)nn1)(C(C)C)C(C)C`
criterion not met

Determine whether measured composite z-score meets or exceeds 0.1 for `O=C(NC1CC1)[C@@H]1c2ccccc2C(=O)N(Cc2ccccc2Cl)[C@H]1c1ccc(CO)cc1`
criterion met

hey, is composite z-score for this one >= 0.1? `[N-]=[N+]=NCc1ccccc1[C@@H]1OC(c2ccc(OCCCO)cc2)=N[C@]1(Cc1ccccc1)C(N)=O`
criterion met

Dear colleague, could you confirm whether `CCS[C@H]1[C@@H](C(=O)O)[C@H](c2ccc(C)cc2)N(S(=O)(=O)c2ccc(C)cc2)[C@@H]1CC` has composite z-score at or above 0.1?
criterion met

Could you tell me if the measured composite z-score of `O=C(NCCO)C1=C[C@H](Oc2ccccc2I)[C@@H](O)[C@H](N(Cc2ccco2)C(=O)Cc2ccccc2)C1` reaches 0.1 or more?
criterion not met

Quick check, composite z-score >= 0.1? C=CCC(OC(C)=O)[C@@H]1[C@@H](N(Cc2ccc(-c3cccc(C(F)(F)F)c3)o2)C(=O)c2ccc(C)cc2)c2cc(OCCCO)ccc2N1C(=O)Cc1ccc2ccccc2c1 (stereo partly drawn)
criterion not met

Confirm if composite z-score reported for the compound `C=C(C(=O)CC[C@@H](OC(=O)c1cccnc1)c1ccccc1OCCO)C(C)C` is 0.1 or above.
criterion not met

# bool: composite z-score of C=CCC(OC(C)=O)[C@@H]1[C@@H](N(Cc2ccc(-c3ccccc3)cc2)C(=O)Cc2ccc(OC)cc2)c2cc(OCCCO)ccc2N1C(=O)Cc1ccc2ccccc2c1 (stereo partly drawn) >= 0.1
criterion not met

Determine whether this compound has composite z-score no lower than 0.1: `CCOC(=O)C[C@H]1[C@H](OC(=O)c2ccc(C(=O)c3ccccc3)cc2)[C@@H](NC(=O)CC(C)C)c2cc(OCCCO)ccc2N1C(=O)c1ccc2ccccc2n1`
criterion met

Assess whether reported composite z-score for `COC(=O)[C@@]1(Cc2ccc(OC)cc2)[C@H]2c3cc(C(=O)N(C)C)n(CCc4ccccn4)c3C[C@H]2CN1C(=O)c1ccccc1` sits at 0.1 or higher.
criterion met

Has `C=C(CC1([C@@H](NP(=O)(c2ccccc2)c2ccccc2)[C@H]2C[C@@H]2CCCC)CC1)c1ccccc1` a recorded composite z-score greater than or equal to 0.1?
criterion met

Does the reported composite z-score for O=C1C2C=CC(C(O)CCc3ccccc3)N(Nc3ccccc3F)C2C(=O)N1c1ccccc1 (stereo not drawn) fall at or above the 0.1 mark?
criterion met

Kindly determine if composite z-score recorded for O=C1NC(=O)C2C1C=CC(C(O)c1cc(C(F)(F)F)cc(C(F)(F)F)c1)N2Nc1ccccn1 (stereo not drawn) is above or exactly 0.1.
criterion not met

Tell me whether composite z-score is at least 0.1 here: `CCOC(=O)C[C@H]1[C@H](OC(=O)c2ccc(-c3ccccc3)cc2)[C@@H](NC(=O)Cc2ccc(OC)cc2)c2cc(OCCCO)ccc2N1C(=O)c1ccccc1`
criterion not met

I'd appreciate it if you could say whether O=C(OCc1ccccc1)C1=CCC2c3[nH]c4ccccc4c3C(=O)C1N2S(=O)(=O)c1ccccc1[N+](=O)[O-] (stereo not drawn) has composite z-score at least equal to 0.1.
criterion not met

Kindly determine if composite z-score recorded for `O=C1[C@@]23C=C(Br)[C@H](C[C@@H]2CCOC3)[C@@]12CO2` is above or exactly 0.1.
criterion not met

Hello, I need to know if C=CC1(C(=O)OC)CC=C(C(=O)OC)CC1 (stereo not drawn) has measured composite z-score not below 0.1. Thanks!
criterion not met

Is composite z-score for `CCCCCCc1nc(-c2ccc(OC)nc2)cc2c1[Si](C(C)C)(C(C)C)O[C@H]2c1ccccc1` at or above 0.1?
criterion not met

Decide: composite z-score of C=CCC(OC(C)=O)[C@@H]1[C@@H](N(Cc2cc3ccccc3o2)C(=O)c2cccc3ccccc23)c2cc(OCCCO)ccc2N1C(=O)c1ccc(-c2ccccc2)cc1 (stereo partly drawn) >= 0.1?
criterion not met
